Hello, the source for this data is patent US20190054150A1, in case you need it.

assayed_system: MCR1 (human, UniProt Q01726 1-317)
Sequence (Q01726 whole entry): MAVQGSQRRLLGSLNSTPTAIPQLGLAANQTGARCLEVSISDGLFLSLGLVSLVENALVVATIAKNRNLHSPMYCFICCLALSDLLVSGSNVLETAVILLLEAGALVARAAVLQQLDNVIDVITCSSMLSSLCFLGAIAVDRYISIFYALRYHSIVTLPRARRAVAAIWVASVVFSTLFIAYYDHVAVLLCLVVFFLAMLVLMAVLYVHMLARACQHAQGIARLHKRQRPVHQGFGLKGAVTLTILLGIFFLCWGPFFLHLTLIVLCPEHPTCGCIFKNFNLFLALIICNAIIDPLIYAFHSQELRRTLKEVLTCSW
assay_remarks: cell-based or functional assay
Square brackets hold non-standard residues; d marks the D form. Ends that are not written are not given here. Nle = CCCC[C@H](N)C(=O)O
Each entry below carries its recorded MCR1 EC50 (nM); cAMP production, LANCE cAMP assay, CHO-MCR1 cells, cell pool C.
Kindly report the value followed by its unit.

Answered examples (4):
SYSMEHFRWGKPVGKKAAAVKVYPGGGGSGGGGSSYS[Nle]EH[dF]RWGKPV (ends and bridges not checked) [ACTH1-24-point-3-5-10aa-NDP-α-MSH] : 0.78 nM
Ac-SYS[Nle]EH[dF]RWGKPVGGGGSGGGGSSYSMEHFRWGKPVGKKRRPVKVYP [NDP-α-MSH-linker-linker-ACTH1-24] : 0.46 nM
SYSMEHFRWGKPVGKKAAAVKVYPGGGGSGGSYS[Nle]EH[dF]RWGKPV (ends and bridges not checked) [ACTH1-24-point-3-5-7aa-NDP-α-MSH] : 0.41 nM
SYSMEHFRWGKPVGAARRPVKVYP [ACTH1-24-point-1-2] : 0.43 nM

Write down MCR1 EC50 (nM); cAMP production, LANCE cAMP assay, CHO-MCR1 cells, cell pool C measured for item SYSMEHFRWGKPVGKKRRAVKVYPSYS[Nle]EH[dF]RWGKPV [ACTH1-24-point-5-NDP-α-MSH]
0.44 nM

Identify measured MCR1 EC50 (nM); cAMP production, LANCE cAMP assay, CHO-MCR1 cells, cell pool C corresponding to SYSMEHFRWGKPVGAARRPVKVYPGGGSSYS[Nle]EH[dF]RWGKPV (ends and bridges not checked) [ACTH1-24-point-1-2-4aa-NDP-α-MSH]
0.25 nM

Recall and state the measured MCR1 EC50 (nM); cAMP production, LANCE cAMP assay, CHO-MCR1 cells, cell pool C for SYSMEHFRWGKPVGKKAAAVKVYP [ACTH1-24-point-3-5] .
0.54 nM

Respond only with MCR1 EC50 (nM); cAMP production, LANCE cAMP assay, CHO-MCR1 cells, cell pool C recorded for SYSMEHFRWGKPVGKKAAAVKVYPSYS[Nle]EH[dF]RWGKPV [ACTH1-24-point-3-5-NDP-α-MSH]
0.32 nM

Tell me its MCR1 EC50 (nM); cAMP production, LANCE cAMP assay, CHO-MCR1 cells, cell pool C given SYSMEHFRWGKPVGAARRPVKVYPSYS[Nle]EH[dF]RWGKPV (ends and bridges not checked) [ACTH1-24-point-1-2-NDP-α-MSH] as the entry.
0.28 nM

Input SYSMEHFRWGKPVGKKRRAVKVYPGGGGSGGSYS[Nle]EH[dF]RWGKPV [ACTH1-24-point-5-7aa-NDP-α-MSH] , output reported MCR1 EC50 (nM); cAMP production, LANCE cAMP assay, CHO-MCR1 cells, cell pool C.
0.22 nM

Give the measured MCR1 EC50 (nM); cAMP production, LANCE cAMP assay, CHO-MCR1 cells, cell pool C for SYSMEHFRWGKPVGAARRPVKVYPGGGGSGGGGSSYS[Nle]EH[dF]RWGKPV (ends and bridges not checked) [ACTH1-24-point-1-2-10aa-NDP-α-MSH]
0.45 nM
